Molecular target: human CD33 A168S (human, UniProt P20138 18-364)
Sequence (P20138 18-364 A168S limits assumed): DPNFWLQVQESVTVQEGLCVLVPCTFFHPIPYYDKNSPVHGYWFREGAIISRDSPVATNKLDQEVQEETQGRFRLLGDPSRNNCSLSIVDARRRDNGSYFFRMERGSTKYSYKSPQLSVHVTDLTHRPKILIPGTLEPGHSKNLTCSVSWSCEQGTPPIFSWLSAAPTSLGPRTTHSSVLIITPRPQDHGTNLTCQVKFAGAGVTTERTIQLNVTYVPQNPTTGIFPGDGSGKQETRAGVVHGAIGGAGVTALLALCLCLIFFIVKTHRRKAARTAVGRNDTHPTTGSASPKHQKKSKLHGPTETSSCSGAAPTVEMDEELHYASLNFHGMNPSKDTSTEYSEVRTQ
Assay: alanine scan, flow cytometry, HEK293-T;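 further: antibody binding to each alanine-substituted CD33 mutant expressed transiently in HEK293-T, read as fluorescence minus background, mean of duplicates, relative to wild-type CD33 set as 100%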
Recorded measurements of Mean % WT Binding, one per entry
The figure you give is taken to be in %; do not add the unit.

Solved cases (2 shown):
Binder	Recorded result
Refmab #1 (antibody, V domains shown, In the alanine scan antibodies were used as IgG or Fab; also called hP67.6) VH: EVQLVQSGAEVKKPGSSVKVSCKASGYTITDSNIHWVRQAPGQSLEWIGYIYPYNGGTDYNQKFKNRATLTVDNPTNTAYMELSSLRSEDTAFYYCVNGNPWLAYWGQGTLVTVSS VL: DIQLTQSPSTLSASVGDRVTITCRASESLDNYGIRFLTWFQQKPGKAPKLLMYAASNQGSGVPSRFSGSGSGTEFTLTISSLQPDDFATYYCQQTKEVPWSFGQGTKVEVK	88.4
Refmab #4 (antibody, V domains shown, In the alanine scan antibodies were used as IgG or Fab) VH: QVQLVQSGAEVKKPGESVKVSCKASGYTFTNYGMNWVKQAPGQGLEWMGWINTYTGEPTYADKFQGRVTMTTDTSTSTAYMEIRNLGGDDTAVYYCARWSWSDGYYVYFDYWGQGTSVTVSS VL: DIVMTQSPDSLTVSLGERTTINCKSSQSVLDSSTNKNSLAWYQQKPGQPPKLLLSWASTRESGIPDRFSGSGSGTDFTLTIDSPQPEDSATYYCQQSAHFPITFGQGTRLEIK	99.9

Field Mean % WT Binding (entry Refmab #2 (antibody, V domains shown, In the alanine scan antibodies were used as IgG or Fab) VH: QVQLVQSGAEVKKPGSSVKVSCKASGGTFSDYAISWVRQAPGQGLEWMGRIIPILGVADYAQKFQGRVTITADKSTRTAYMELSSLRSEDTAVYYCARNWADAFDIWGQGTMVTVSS VL: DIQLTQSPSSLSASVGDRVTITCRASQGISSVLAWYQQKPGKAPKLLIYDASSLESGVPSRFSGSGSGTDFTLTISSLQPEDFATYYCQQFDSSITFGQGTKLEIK ) reads 110
